The reported measurements were obtained from ChEMBL document CHEMBL1944521.

target: UniProt O60725; experiment: Inhibition of His-tagged human Icmt membrane protein over-expressed in Saccharomyces cerevisiae 2766 using [14C]-SAM and N-acetyl-S-farnesyl-l-cysteine as substrate measured after 30 mins by scintillation counting; conditions: read-out: IC50
Sequence (O60725 whole entry): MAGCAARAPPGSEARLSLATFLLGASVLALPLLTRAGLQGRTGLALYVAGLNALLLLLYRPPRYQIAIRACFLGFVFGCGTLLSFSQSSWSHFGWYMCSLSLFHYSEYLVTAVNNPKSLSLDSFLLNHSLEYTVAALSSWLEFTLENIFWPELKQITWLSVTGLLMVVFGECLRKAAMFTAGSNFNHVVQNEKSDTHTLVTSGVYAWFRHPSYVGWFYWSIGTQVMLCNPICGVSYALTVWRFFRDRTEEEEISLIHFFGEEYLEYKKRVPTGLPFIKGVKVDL
QUANTITY NAME: IC50 (µM)
Write down the numeric answer in µM and omit the unit.

Value of measured IC50 for the entry CC(C)=CCC/C(C)=C/CC/C(C)=C/CSC[C@H](NC(=O)c1ccccc1Cc1ccccc1)C(=O)O : 38

Value of measured IC50 for the entry CC(C)=CCC/C(C)=C/CC/C(C)=C/CSC[C@H](NC(=O)c1ccccc1OCc1ccccc1)C(=O)O : 13.4

Value of measured IC50 for the entry CC(C)=CCC/C(C)=C/CC/C(C)=C/CSC[C@@H](C(=O)O)N(C)C(=O)c1ccccc1Oc1ccccc1 : 6.7

Value of measured IC50 for the entry CC(C)=CC/C(=C/CSC[C@H](NC(=O)c1ccccc1Oc1ccccc1)C(=O)O)CCc1ccc(-c2ccccc2)cc1 : 2.5

Value of measured IC50 for the entry CCCCCCCCCCCSC[C@H](NC(=O)c1ccccc1Oc1ccccc1)C(=O)O : 210

Value of measured IC50 for the entry CC(C)=CCC/C(C)=C/CC/C(C)=C/CSC[C@@H](NC(=O)c1ccccc1Oc1ccccc1)C(=O)O : 7.8
